# System: 885512-296-R-J2-PDC complex spheroid growth, % test/control
# assay.notes: Anticancer human tumor 885512-296-R-J2-PDC patient-derived breast carcinoma cell line growth inhibition [AhR]
# setup.conditions: curve of first compound; second compound 3.16 µM
value.kind: IC50 (nM)
Report the value in nM with no unit label.

Qu. Could you share which IC50 value was measured for Nc1ccccc1NC(=O)c1ccc(CNC(=O)OCc2cccnc2)cc1 + Cc1cncc(-c2nc(NCCc3c[nH]c4ccccc34)c3ncn(C(C)C)c3n2)c1 ?
Ans. 373

Qu. Could you share which IC50 value was measured for COc1cc(Nc2ncc3c(n2)-c2ccc(Cl)cc2C(c2c(F)cccc2OC)=NC3)ccc1C(=O)O + Cc1ccccc1N=Nc1ccc(NC(=O)c2ccnn2C)c(C)c1 ?
Ans. 1980

* * *

# Test system: 885512-296-R-J2-PDC complex spheroid growth, % test/control
# assay.notes: Anticancer human tumor 885512-296-R-J2-PDC cell line growth inhibition [AhR]; active means viability on the fitted dose curve at most 10% of control; inactive means the rest;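 also: spheroids exposed to compounds for seven days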
# setup.conditions: second compound 0.316 µM; first compound 0.1 µM
The reply should be one of these categories: T (active), F (inactive)

- compound: "Cn1ncnc1C1c2n[nH]c(=O)c3cc(F)cc(c23)NC1c1ccc(F)cc1 (stereo unspecified) + Cc1cncc(-c2nc(NCCc3c[nH]c4ccccc34)c3ncn(C(C)C)c3n2)c1"
  study.target: "885512-296-R-J2-PDC complex spheroid growth, % test/control"
  group.label: "F"
- compound: "CC(C)c1c(-c2ccccc2)nc2c(C#N)c[nH]n2c1=O + Cc1cncc(-c2nc(NCCc3c[nH]c4ccccc34)c3ncn(C(C)C)c3n2)c1"
  study.target: "885512-296-R-J2-PDC complex spheroid growth, % test/control"
  group.label: "F"
- compound: "Nc1ccccc1NC(=O)c1ccc(CNC(=O)OCc2cccnc2)cc1 + CC(CO)NC(=O)c1cc(-c2ccc(Cl)cc2)nn(-c2cnn(C)c2)c1=O"
  study.target: "885512-296-R-J2-PDC complex spheroid growth, % test/control"
  group.label: "F"

Qu. Answer briefly: the call reported for CC1COCCN1c1cc(-c2ccnn2C)c2ccnc(-c3ccn[nH]3)c2n1 (stereo unspecified) + Cc1cncc(-c2nc(NCCc3c[nH]c4ccccc34)c3ncn(C(C)C)c3n2)c1 in this assay.
Ans. T

Qu. Answer briefly: the call reported for Nc1ncn(C2CC(O)C(CO)O2)c(=O)n1 (stereo unspecified) + Cc1ccccc1N=Nc1ccc(NC(=O)c2ccnn2C)c(C)c1 in this assay.
Ans. F

Qu. Answer briefly: the call reported for CC(C)c1c(-c2ccccc2)nc2c(C#N)c[nH]n2c1=O + CC(CO)NC(=O)c1cc(-c2ccc(Cl)cc2)nn(-c2cnn(C)c2)c1=O in this assay.
Ans. F

* * *

# Tested on: 885512-296-R-J2-PDC complex spheroid growth, % test/control
# assay.notes: Anticancer human tumor 885512-296-R-J2-PDC cell line growth inhibition [AhR];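 also: spheroids exposed to compounds for seven days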
# setup.conditions: second compound 1 µM; first compound 0.0316 µM; stronger effect = lower value
Catalogue of molecules with associated viability, T/C
Report the value in % with no unit label.

// below: answered molecules
- molecule: "O=C(c1cc(Cc2n[nH]c(=O)c3ccccc23)ccc1F)N1CCN(C(=O)C2CC2)CC1 + Cc1cncc(-c2nc(NCCc3c[nH]c4ccccc34)c3ncn(C(C)C)c3n2)c1"
  value.kind: "viability, T/C"
  reading: 85.3
- molecule: "CC1COCCN1c1cc(-c2ccnn2C)c2ccnc(-c3ccn[nH]3)c2n1 (centres undefined) + Cc1ccccc1N=Nc1ccc(NC(=O)c2ccnn2C)c(C)c1"
  value.kind: "viability, T/C"
  reading: 61.6
- molecule: "COc1cc(Nc2ncc3c(n2)-c2ccc(Cl)cc2C(c2c(F)cccc2OC)=NC3)ccc1C(=O)O + CC(CO)NC(=O)c1cc(-c2ccc(Cl)cc2)nn(-c2cnn(C)c2)c1=O"
  value.kind: "viability, T/C"
  reading: 57.6
- molecule: "O=C(C=Cc1cccc(S(=O)(=O)Nc2ccccc2)c1)NO + CC(CO)NC(=O)c1cc(-c2ccc(Cl)cc2)nn(-c2cnn(C)c2)c1=O"
  value.kind: "viability, T/C"
  reading: 96
- molecule: "Nc1ccccc1NC(=O)c1ccc(CNC(=O)OCc2cccnc2)cc1 + CC(CO)NC(=O)c1cc(-c2ccc(Cl)cc2)nn(-c2cnn(C)c2)c1=O"
  value.kind: "viability, T/C"
  reading: 92.8
- molecule: "CC1COCCN1c1cc(-c2ccnn2C)c2ccnc(-c3ccn[nH]3)c2n1 (centres undefined) + CC(CO)NC(=O)c1cc(-c2ccc(Cl)cc2)nn(-c2cnn(C)c2)c1=O"
  value.kind: "viability, T/C"
  reading: 53.4

Qu. Could you share which viability, T/C value was measured for O=C(C=Cc1cccc(S(=O)(=O)Nc2ccccc2)c1)NO + Cc1cncc(-c2nc(NCCc3c[nH]c4ccccc34)c3ncn(C(C)C)c3n2)c1 ?
Ans. 96.1

Qu. Could you share which viability, T/C value was measured for NS(=O)(=O)OCC1CC(n2ccc3c(NC4CCc5ccccc54)ncnc32)CC1O (centres undefined) + Cc1cncc(-c2nc(NCCc3c[nH]c4ccccc34)c3ncn(C(C)C)c3n2)c1 ?
Ans. 81.3

Qu. Could you share which viability, T/C value was measured for NS(=O)(=O)OCC1CC(n2ccc3c(NC4CCc5ccccc54)ncnc32)CC1O (centres undefined) + CC(CO)NC(=O)c1cc(-c2ccc(Cl)cc2)nn(-c2cnn(C)c2)c1=O ?
Ans. 106

Qu. Could you share which viability, T/C value was measured for COc1cc(C2c3cc4c(cc3C(OC3OC5COC(C)OC5C(O)C3O)C3COC(=O)C23)OCO4)cc(OC)c1O (centres undefined) + Cc1cncc(-c2nc(NCCc3c[nH]c4ccccc34)c3ncn(C(C)C)c3n2)c1 ?
Ans. 90.2

Qu. Could you share which viability, T/C value was measured for Nc1ncn(C2CC(O)C(CO)O2)c(=O)n1 (centres undefined) + Cc1ccccc1N=Nc1ccc(NC(=O)c2ccnn2C)c(C)c1 ?
Ans. 122

Qu. Could you share which viability, T/C value was measured for COc1cccc2c1C(=O)c1c(O)c3c(c(O)c1C2=O)CC(O)(C(=O)CO)CC3OC1CC(N)C(O)C(C)O1 (centres undefined) + CC(CO)NC(=O)c1cc(-c2ccc(Cl)cc2)nn(-c2cnn(C)c2)c1=O ?
Ans. 24.6

Qu. Could you share which viability, T/C value was measured for Nc1ncn(C2CC(O)C(CO)O2)c(=O)n1 (centres undefined) + Cc1cncc(-c2nc(NCCc3c[nH]c4ccccc34)c3ncn(C(C)C)c3n2)c1 ?
Ans. 80.7

* * *

# System: 885512-296-R-J2-PDC complex spheroid growth, % test/control
# assay.notes: Anticancer human tumor 885512-296-R-J2-PDC cell line growth inhibition [AhR]; active = viability on the fitted dose curve at most 10% of control; inactive = the rest;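 also: spheroids exposed to compounds for seven days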
# setup.conditions: second compound 0.316 µM; first compound 0.316 µM
# Text: Multicellular complex tumor spheroid response to aryl hydrocarbon receptor antagonists in combination with a variety of drugs and investigational agents in selected tumor cell lines […] Compounds. […] If the clinical Cmax for an agent had not been determined, the highest concentration tested was 10 microM (Table 1). […]
The reply should be one of these categories: active, inactive

Please review the entries below; each comes with its answer.
- compound: "Nc1ccn(C2OC(CO)C(O)C2(F)F)c(=O)n1 (stereo not drawn) + CC(CO)NC(=O)c1cc(-c2ccc(Cl)cc2)nn(-c2cnn(C)c2)c1=O"
  group.label: "active"
- compound: "COc1ccc([C@@H](O)c2cc(-c3ncnc4cc(N5CCOCC5)ccc34)c(F)cc2Cl)nn1 + Cc1ccccc1N=Nc1ccc(NC(=O)c2ccnn2C)c(C)c1"
  group.label: "inactive"

Turning to the following compound.
Qu. Answer briefly: the call reported for CC1COCCN1c1cc(C2(S(C)(=N)=O)CC2)nc(-c2ccnc3[nH]ccc23)n1 (stereo not drawn) + Cc1ccccc1N=Nc1ccc(NC(=O)c2ccnn2C)c(C)c1 in this assay.
Ans. inactive

* * *

# Test system: 885512-296-R-J2-PDC complex spheroid growth, % test/control
# assay.notes: Anticancer human tumor 885512-296-R-J2-PDC cell line growth inhibition [AhR];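 also: spheroids exposed to compounds for seven days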
# setup.conditions: second compound 0.316 µM; first compound 3 µM; stronger effect = lower value
value.kind: viability, T/C (%)
Report the value in % with no unit label.

// below: answered molecules
- molecule: "CCN(c1cc(-c2ccc(CN3CCOCC3)cc2)cc(C(=O)NCc2c(C)cc(C)[nH]c2=O)c1C)C1CCOCC1 + Cc1ccccc1N=Nc1ccc(NC(=O)c2ccnn2C)c(C)c1"
  unit.text: "%"
  viability, T/C: 68.5
- molecule: "O=C(C=Cn1cnc(-c2cc(C(F)(F)F)cc(C(F)(F)F)c2)n1)NNc1cnccn1 + Cc1cncc(-c2nc(NCCc3c[nH]c4ccccc34)c3ncn(C(C)C)c3n2)c1"
  unit.text: "%"
  viability, T/C: 1.45
- molecule: "CCN(c1cc(-c2ccc(CN3CCOCC3)cc2)cc(C(=O)NCc2c(C)cc(C)[nH]c2=O)c1C)C1CCOCC1 + Cc1cncc(-c2nc(NCCc3c[nH]c4ccccc34)c3ncn(C(C)C)c3n2)c1"
  unit.text: "%"
  viability, T/C: 74.8
- molecule: "O=C(C=Cn1cnc(-c2cc(C(F)(F)F)cc(C(F)(F)F)c2)n1)NNc1cnccn1 + CC(CO)NC(=O)c1cc(-c2ccc(Cl)cc2)nn(-c2cnn(C)c2)c1=O"
  unit.text: "%"
  viability, T/C: 0.84
- molecule: "O=C(C=Cn1cnc(-c2cc(C(F)(F)F)cc(C(F)(F)F)c2)n1)NNc1cnccn1 + Cc1ccccc1N=Nc1ccc(NC(=O)c2ccnn2C)c(C)c1"
  unit.text: "%"
  viability, T/C: 0.77

Now take the following molecule into account.
Qu. Could you share which viability, T/C value was measured for CCN(c1cc(-c2ccc(CN3CCOCC3)cc2)cc(C(=O)NCc2c(C)cc(C)[nH]c2=O)c1C)C1CCOCC1 + CC(CO)NC(=O)c1cc(-c2ccc(Cl)cc2)nn(-c2cnn(C)c2)c1=O ?
Ans. 69.1
